The reported numbers originate from PubChem BioAssay AID618.

- assay: inhibitors of MT1-MMP promoter transcription, cell-based, luciferase reporter, luminescence (AID 618);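 also: actives suppress MT1-MMP promoter-driven transcription so potencies describe inhibitors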
- condition-info: MT1-MMP promoter luciferase reporter cells
Hit rate of the full screen: of about 87,000 compounds, about 540 (0.62%) were called active. No rule for the calls is given here. The sample holds actives, similar compounds and a random draw of the others, so the mix is not that of the screen. Potency and affinity values are given separately.
Assign a class; possible classes are active, inactive

compound | category-label
CC(C)(C)c1ccc(C(=O)C=[N+]=[N-])cc1 | inactive
COc1ccc(C(=O)c2ccccc2)c(O)c1 | inactive
Cc1cccc(NCc2ccccc2O)n1 | inactive
OC(CCN1CCCC1)(c1ccccc1)C1CCCCC1 (stereo not drawn) | inactive
CC(=O)NC(C1C(=O)CC(C)(C)CC1=O)(C(F)(F)F)C(F)(F)F | inactive
CCc1ccc(-c2nc(-c3ccncc3)no2)cc1 | inactive
O=C(c1cccn2c(=O)c3cc(Br)ccc3nc12)N1CCN(c2ccccn2)CC1 | inactive
CCOC(=O)c1n[nH]c2ccccc12 | inactive
O=C(COc1cccc(C(F)(F)F)c1)NCCCN1CCCC1=O | inactive
COc1ccc(C(=O)Nc2ccccn2)cc1 | inactive

Dear all, I need the recorded test outcome for CCCCS(=O)(=O)Nc1ccc(C(=O)NCC2CCCO2)cc1 (stereo not drawn) , thank you.
inactive

Returns: the outcome recorded for CCOc1ccc(-c2nc(-c3ccncc3)no2)cc1OCC in this assay.
inactive

I'd appreciate the recorded outcome for Cc1ccc(O)c(C(=O)CC(=O)c2cccc(F)c2)c1 from this test.
inactive

What did this assay record as the result for Cc1noc(C)c1CSc1nnc2scc(-c3ccc(Cl)cc3)n12 ?
inactive

Give the logged outcome of this assay for the following compound: O=C1CCC([N+](=O)[O-])C(c2ccccc2Cl)N1 (stereo not drawn)
inactive

Called result for COc1cc(OC)cc(-c2cc3nc(C)c(CCC(=O)NC(C)CCc4ccco4)c(C)n3n2)c1 (stereo not drawn)
inactive

Name the outcome recorded for COCCn1c(N)c(S(=O)(=O)c2cccs2)c2nc3ccccc3nc21 in the assay.
inactive

// param item: NC(=O)c1ccccc1N/C=C/C(=O)c1ccc(Cl)cc1 ; yields the recorded call
inactive

Would you mind telling me which call this test gave Cn1c(=N)n(CC(=O)O)c2ccccc21 ?
inactive

Called result for Cc1ccc(CN(c2ccc(C(=O)NCc3ccccn3)cc2)S(C)(=O)=O)cc1
inactive

Could you check what this test reported for CCc1c(C)nc2ncnn2c1N1CCCC(C(=O)Nc2ccc(NC(C)=O)cc2)C1 (stereo not drawn) ?
inactive

What did this assay record as the result for O=C(c1ccc2snnc2c1)N1CCOCC1 ?
inactive

What call does the record list for COCCNC(=O)C(c1cccs1)N(Cc1cccs1)C(=O)Cn1nnc2ccccc21 (stereo not drawn) ?
inactive

What did the test return for CCOc1ccc(C(=O)NCCCn2ccnc2)cc1 ?
inactive

Please share the test call associated with Cc1ccc(N=Cc2ccc(N(C)C)cc2)cc1 .
inactive

Outcome? NC(=O)C1CCN(C(=O)c2cc3ccccn3n2)CC1
inactive

Look up the recorded call for OC(CCCCN1CCCCC1)c1ccccc1 (stereo not drawn) in this test.
inactive

How did this test come out for COC(=O)c1ccc(Nc2nc(C)cc(C)n2)cc1 ?
inactive

###

- assay: inhibitors of MT1-MMP promoter transcription, cell-based, luciferase reporter, luminescence (AID 618)
- condition-info: MT1-MMP promoter luciferase reporter cells
In all, about 87,000 compounds went through this assay and about 540 (0.62%) were called active. The rule behind the calls is not given here. For the sample, actives were picked, then their nearest neighbours and some compounds at random. Potency and affinity values are given separately.
API: response.call in active, inactive

Sample answers from the record:
compound | category-label
CCC(C)(C)n1nnnc1CN1CCC(c2nc3ccc(C)cc3[nH]2)CC1 | inactive
CCCCCC(=O)N(O)C1CC(=O)N(c2ccccc2)C1=O (stereo not drawn) | inactive
CCn1c(=NC(=O)CN2C(=O)CCC2=O)sc2c(C)cc(C)cc21 | inactive
Cc1cc(C)n(-c2nc3c(c(=O)[nH]c(=O)n3C)n2CCc2ccccc2)n1 | inactive

Returns: the outcome recorded for CC1=CC(C)(C)N(S(=O)(=O)c2ccc(C)cc2)c2ccc(C)cc21 in this assay.
active

How was COC(=O)c1nn(-c2ccc3c(c2)OCO3)cc1O classified in this test?
inactive

Assay outcome for Cc1onc(-c2c(F)cccc2Cl)c1C(=O)OCn1nnc2ccccc2c1=O : what was it?
inactive

Would you mind telling me which call this test gave CC1=CC(C)(C)N(S(=O)(=O)c2ccc(F)cc2)c2ccccc21 ?
inactive

Just curious, what result did NC(=O)CSc1nnc2sc3ccccc3n12 get here?
inactive

###

- assay: inhibitors of MT1-MMP promoter transcription, cell-based, luciferase reporter, luminescence (AID 618)
- condition-info: MT1-MMP promoter luciferase reporter cells
Screen size: about 87,000 compounds; about 540 (0.62%) were called active. The rule behind the calls is not given here. Shown is part of a subset that was picked to be rich in actives. Results with a measured potency or affinity are listed apart.
Please state which outcome applies, choosing from yes = active, no = inactive

Solved cases below.
molecule | category-label
O=C1c2ccccc2-c2nccnc21 | no
N#CC1=C(N)SC(N)=C(C#N)C1c1ccnc2ccccc12 | no

Query: recorded result category for O=C(Cc1ccccc1)Nc1ccc(NC(=O)c2ccco2)nc1 in this test
no

Which outcome was assigned to O=C(NNC(=O)c1ccccc1Br)c1ccc(SCC2CCCO2)c([N+](=O)[O-])c1 (stereo not drawn) in this test?
no

For this molecule, state the assay outcome: O=C(Nn1cnnc1)c1cc(-c2ccccn2)nc2ccccc12
no

Just curious, what result did Cc1ccccc1C1CC(c2ccc(F)cc2)Nc2nc(N)nn21 (stereo not drawn) get here?
no

Which outcome was entered for the molecule O=C(Nc1ccc(NC(=O)C2CC2)nc1)c1ccco1 in this test?
no

So what was the verdict on Cc1ccc(-c2nnc(-c3ccc(Br)cc3)o2)o1 in this test?
no

###

- assay: inhibitors of MT1-MMP promoter transcription, cell-based, luciferase reporter, luminescence (AID 618)
- condition-info: MT1-MMP promoter luciferase reporter cells
The campaign covered roughly 87,000 compounds. About 540 (0.62%) were called active. No rule for the calls is given here. The full list was thinned out, with actives kept by preference. Results with a measured potency or affinity are listed apart.
Give one outcome, nothing more. List: active, inactive

molecule | category-label
CCCCCCc1ccc(-c2ncc(N)cn2)cc1 | active
CCc1ccc(-c2ccc(C(=O)O)cc2)nc1 | inactive
Cc1ccc(C)c(SCC(=O)OCC(=O)Nc2ccc(S(=O)(=O)N3CCOCC3)cc2)c1 | inactive
CCOc1c(S(=O)(=O)N2CCCC2)ccc(Cl)c1Cl | inactive
Cc1c(C(=O)OC(C)CCN(C)C)oc2ccccc12 (configuration not stated) | inactive
O=C(COc1ccc(Br)cc1CO)Nc1ccccc1F | inactive

Status in this test for COCCn1c(=O)c2c3c(sc2n(CC(N)=O)c1=O)CCCC3 ?
inactive

What call does the record list for Cc1cc(C(=O)COC(=O)c2n[nH]c3ccccc23)c(C)n1CC1CCCO1 (configuration not stated) ?
inactive

Called result for Cc1ccc2cc(CN(CC3CCCO3)S(=O)(=O)c3c(C)ccc4nsnc34)c(=O)[nH]c2c1 (configuration not stated)
inactive

I would be grateful if you could indicate the recorded call for Cc1cc(C(=O)CN2C(=O)c3ccccc3S2(=O)=O)c(C)n1-c1ccccc1 .
active

Tell me the recorded outcome of this test for O=S(=O)(Nc1ccccn1)c1ccc(C2CCCCC2)cc1 .
inactive

Give the logged outcome of this assay for the following molecule: Cc1cc(C(=O)CN2C(=O)C3CC=CCC3C2=O)c(C)n1-c1ccccc1 (configuration not stated)
inactive

###

- assay: inhibitors of MT1-MMP promoter transcription, cell-based, luciferase reporter, luminescence (AID 618);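 also: actives suppress MT1-MMP promoter-driven transcription so potencies describe inhibitors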
- condition-info: MT1-MMP promoter luciferase reporter cells
Screen size: about 87,000 compounds; about 540 (0.62%) were called active. For the sample, actives were picked, then their nearest neighbours and some compounds at random. Entries with a potency or affinity are not part of this list.

smiles-notation | outcome
NCc1ccc(-c2nc3ccccc3o2)cc1 | inactive
COc1cccc(CSc2nc3sc(C)c(C)c3c(=O)n2Cc2ccco2)c1 | inactive
CCCC(=O)Nc1nnc(-c2cccc(OCC)c2)s1 | inactive

###

- assay: inhibitors of MT1-MMP promoter transcription, cell-based, luciferase reporter, luminescence (AID 618);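 also: actives suppress MT1-MMP promoter-driven transcription so potencies describe inhibitors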
- condition-info: MT1-MMP promoter luciferase reporter cells
Out of some 87,000 compounds screened, about 540 (0.62%) were called active. No rule for the calls is given here. The list comes from a sample in which actives are over-represented; it also holds close analogues and randomly drawn compounds. Potency and affinity values are given separately.
Lab note: assign the record to one of active, inactive

compound | category-label
CCn1c(C)nc2cc(-c3nnc(-c4c(-c5ccccc5)noc4C)o3)ccc21 | inactive

Kindly review the next compound as well.
Hi, do you know how CCN(CC)S(=O)(=O)c1cccc(-c2nc3n(n2)Cc2ccccc2-3)c1 came out in this test?
inactive

###

- assay: inhibitors of MT1-MMP promoter transcription, cell-based, luciferase reporter, luminescence (AID 618);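 also: actives suppress MT1-MMP promoter-driven transcription so potencies describe inhibitors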
- condition-info: MT1-MMP promoter luciferase reporter cells
About 540 (0.62%) of roughly 87,000 compounds were called active. How the calls were made is not given here. For the sample, actives were picked, then their nearest neighbours and some compounds at random. Potency and affinity values are given separately.
Outcome (select one): active, inactive

compound | category-label
COC(=O)CCn1nnc(-c2ccc(C)cc2)n1 | inactive
CCOc1ccc(C2=Nn3c(nnc3-c3ccc(OC)cc3)SC2)cc1 | inactive
COc1cc(-c2nnc3n2N=C(c2ccccc2)CS3)cc(OC)c1OC | active
Brc1ccc(OCc2nc(-c3ccccn3)n[nH]2)cc1 | inactive
COc1oc(-c2ccc(Cl)cc2)nc1C(F)(F)F | inactive

Tell me the assay call for c1ccc2nc(-c3nc4ccccc4o3)ccc2c1 please.
active

Recorded call for Cc1ccc(C2/C(=C(\O)c3ccc4c(c3)OCCO4)C(=O)C(=O)N2CCCN(C)C)o1 (configuration not stated) ?
inactive

# fetch the recorded call for Cc1ccc2c(c1)c(=O)c1c3n2CCN(C(=O)CCl)C3CC1 (configuration not stated) here
active

# outcome recorded in this test, key = COc1ccc(C2=Nn3c(nnc3-c3ccccc3OC)SC2)cc1OC
active
